- Tested on: ABCG2 over-expressing Ig-MXP3 cells
- protocol_notes: Chemoreversal assay: potentiation of mitoxantrone (MTX) killing
- Format: cell-based
- conditions: Ig-MXP3 cells, values in nM; listed as XR9051; read-out: chemoreversal (CR50) ABCG2
endpoint_name: EC50 (nM)
Give bare numbers, in nM.

Lab note: measured EC50 of COc1cc2c(cc1OC)CN(CCc1ccc(NC(=O)c3cccc(/C=c4\[nH]c(=O)/c(=C/c5ccccc5)n(C)c4=O)c3)cc1)CC2 [Compound 2, reference compound] was 700

====

- study_system: ABCG2 (Homo sapiens, UniProt Q9UNQ0)
- Sequence (Q9UNQ0 1-655): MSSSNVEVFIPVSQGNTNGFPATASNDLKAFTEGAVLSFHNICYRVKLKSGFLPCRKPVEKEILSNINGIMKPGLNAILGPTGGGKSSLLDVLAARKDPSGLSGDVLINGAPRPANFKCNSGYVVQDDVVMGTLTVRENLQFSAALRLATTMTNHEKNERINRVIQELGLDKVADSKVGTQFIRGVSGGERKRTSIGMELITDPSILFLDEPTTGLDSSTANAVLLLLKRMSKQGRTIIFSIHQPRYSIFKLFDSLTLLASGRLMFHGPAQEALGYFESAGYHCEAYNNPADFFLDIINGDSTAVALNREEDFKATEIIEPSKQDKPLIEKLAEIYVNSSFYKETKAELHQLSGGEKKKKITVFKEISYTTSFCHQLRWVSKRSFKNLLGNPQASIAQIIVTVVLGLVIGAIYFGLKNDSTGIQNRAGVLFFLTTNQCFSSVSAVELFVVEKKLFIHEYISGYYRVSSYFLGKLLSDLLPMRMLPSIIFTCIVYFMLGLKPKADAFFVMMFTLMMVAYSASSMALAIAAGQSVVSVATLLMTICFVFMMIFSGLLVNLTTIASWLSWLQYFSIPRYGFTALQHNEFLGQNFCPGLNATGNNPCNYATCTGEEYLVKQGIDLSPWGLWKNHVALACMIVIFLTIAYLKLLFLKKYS
- protocol_notes: JC-1 efflux inhibition dose response, flow cytometry, Ig-MXP3 cells
- conditions: quotient of average ABCB1 IC50 and average ABCG2 IC50, efflux assay
Each entry gets condition not met if its ~Fold G2 Selective (B1/G2) stays under 40 fold, and condition met if its ~Fold G2 Selective (B1/G2) is 40 fold or above.

O=C(OCc1ccccc1)N1CCN(c2cc(-c3ccco3)nc3cc(-c4ccccc4)nn23)CC1    condition not met
Cc1cc(C(=O)N2CCN(c3cc(-c4ccco4)nc4cc(-c5ccccc5)nn34)CC2)c(C)o1    condition not met
COc1cccc(-c2cc(N3CCN(C(=O)c4ccoc4)CC3)n3nc(-c4ccccc4)cc3n2)c1    condition met
O=C(c1ccoc1)N1CCN(c2cc(-c3ccco3)nc3cc(-c4ccccc4)nn23)CC1    condition not met

Note: attention shifts to another entry.
IN: Assess whether reported ~Fold G2 Selective (B1/G2) for COc1ccccc1-c1cc2nc(-c3ccccc3)cc(N3CCN(C(=O)c4ccco4)CC3)n2n1 sits at 40 fold or higher.
OUT: condition not met

====

- study_system: ABCB1 / ABCG2 (Homo sapiens, UniProt Q9UNQ0)
- protocol_notes: JC-1 efflux inhibition dose response, flow cytometry, Ig-MXP3 cells
- conditions: human, probe JC-1 (1 µM), ~Fold G2 Selective (B1/G2), quotient of average ABCB1 IC50 and average ABCG2 IC50, efflux assay
Each entry gets -1 if its selectivity ratio at 30 min stays under 2, and 1 if its selectivity ratio at 30 min is 2 or above.

IN: Assess whether reported selectivity ratio at 30 min for O=C1CN(c2cc(-c3ccco3)nc3cc(-c4ccccc4)nn23)CCN1c1ccccc1 sits at 2 or higher.
OUT: 1

IN: Assess whether reported selectivity ratio at 30 min for O=C(c1ccoc1)N1CCN(c2cc(-c3ccc(F)cc3)nc3cc(-c4ccccc4)nn23)CC1 sits at 2 or higher.
OUT: -1

IN: Assess whether reported selectivity ratio at 30 min for COc1cccc(-c2cc(N3CCN(C(=O)c4ccoc4)CC3)n3nc(-c4ccccc4)cc3n2)c1 sits at 2 or higher.
OUT: 1

IN: Assess whether reported selectivity ratio at 30 min for O=C(c1ccccc1Cl)N1CCN(c2cc(-c3ccccc3)nc3cc(-c4cccc(Cl)c4)nn23)CC1 sits at 2 or higher.
OUT: -1

IN: Assess whether reported selectivity ratio at 30 min for COc1cccc(-c2cc3nc(C)c(C)c(N4CCN(Cc5ccoc5)CC4)n3n2)c1 sits at 2 or higher.
OUT: 1

====

- Test system: ABCB1 over-expressing Jurkat-DNR cells
- protocol_notes: Chemoreversal assay: potentiation of daunorubicin (DNR) killing
- Assay type: cell-based
- conditions: constant 100 nM DNR, varied inhibitor dose, listed as SID 85240370, read-out: CR50 ABCB1
endpoint_name: pEC50
Give bare numbers, as −log10 of the molar value.

Bench note, ABCB1 over-expressing Jurkat-DNR cells: O=C(c1ccco1)N1CCN(c2cc(-c3ccccc3)nc3cc(-c4cccc(Cl)c4)nn23)CC1 , pEC50 reads 6.15

====

For each entry below, report its ~Fold G2 Selective (B1/G2) value.
- study_system: ABCG2 (Homo sapiens, UniProt Q9UNQ0)
- protocol_notes: JC-1 efflux inhibition dose response, flow cytometry, Ig-MXP3 cells
- conditions: quotient of average ABCB1 IC50 and average ABCG2 IC50, efflux assay
One number for each entry, in fold.

Please review the following examples before continuing.
O=C(c1ccsc1)N1CCN(c2cc(-c3ccco3)nc3cc(-c4ccccc4)nn23)CC1    3.6
Cc1coc(C)c1C(=O)N1CCN(c2cc(-c3ccco3)nc3cc(-c4ccccc4)nn23)CC1    2.0
O=C(c1ccoc1)N1CCN(c2cc(-c3ccccc3)nc3cc(-c4cccc(Cl)c4)nn23)CC1    7.2

Working through the 5 compounds below one at a time, give ~Fold G2 Selective (B1/G2) for each.
1. COc1cccc(-c2cc3nc(-c4ccco4)cc(N4CCN(C(=O)c5ccoc5)CC4)n3n2)c1
2. O=C(c1ccco1)N1CCN(c2cc(-c3ccccc3)nc3cc(-c4cccc(Cl)c4)nn23)CC1
3. O=C(c1coc2ccccc12)N1CCN(c2cc(-c3ccco3)nc3cc(-c4ccccc4)nn23)CC1
4. Cc1occc1C(=O)N1CCN(c2cc(-c3ccco3)nc3cc(-c4ccccc4)nn23)CC1
5. COc1ccccc1-c1cc2nc(-c3ccccc3)cc(N3CCN(C(=O)c4ccccc4)CC3)n2n1

OUT:
1. 3.3
2. 6.4
3. 3.1
4. 5.1
5. 3.0

====

- study_system: ABCB1 (Homo sapiens)
- Sequence (P08183 whole entry): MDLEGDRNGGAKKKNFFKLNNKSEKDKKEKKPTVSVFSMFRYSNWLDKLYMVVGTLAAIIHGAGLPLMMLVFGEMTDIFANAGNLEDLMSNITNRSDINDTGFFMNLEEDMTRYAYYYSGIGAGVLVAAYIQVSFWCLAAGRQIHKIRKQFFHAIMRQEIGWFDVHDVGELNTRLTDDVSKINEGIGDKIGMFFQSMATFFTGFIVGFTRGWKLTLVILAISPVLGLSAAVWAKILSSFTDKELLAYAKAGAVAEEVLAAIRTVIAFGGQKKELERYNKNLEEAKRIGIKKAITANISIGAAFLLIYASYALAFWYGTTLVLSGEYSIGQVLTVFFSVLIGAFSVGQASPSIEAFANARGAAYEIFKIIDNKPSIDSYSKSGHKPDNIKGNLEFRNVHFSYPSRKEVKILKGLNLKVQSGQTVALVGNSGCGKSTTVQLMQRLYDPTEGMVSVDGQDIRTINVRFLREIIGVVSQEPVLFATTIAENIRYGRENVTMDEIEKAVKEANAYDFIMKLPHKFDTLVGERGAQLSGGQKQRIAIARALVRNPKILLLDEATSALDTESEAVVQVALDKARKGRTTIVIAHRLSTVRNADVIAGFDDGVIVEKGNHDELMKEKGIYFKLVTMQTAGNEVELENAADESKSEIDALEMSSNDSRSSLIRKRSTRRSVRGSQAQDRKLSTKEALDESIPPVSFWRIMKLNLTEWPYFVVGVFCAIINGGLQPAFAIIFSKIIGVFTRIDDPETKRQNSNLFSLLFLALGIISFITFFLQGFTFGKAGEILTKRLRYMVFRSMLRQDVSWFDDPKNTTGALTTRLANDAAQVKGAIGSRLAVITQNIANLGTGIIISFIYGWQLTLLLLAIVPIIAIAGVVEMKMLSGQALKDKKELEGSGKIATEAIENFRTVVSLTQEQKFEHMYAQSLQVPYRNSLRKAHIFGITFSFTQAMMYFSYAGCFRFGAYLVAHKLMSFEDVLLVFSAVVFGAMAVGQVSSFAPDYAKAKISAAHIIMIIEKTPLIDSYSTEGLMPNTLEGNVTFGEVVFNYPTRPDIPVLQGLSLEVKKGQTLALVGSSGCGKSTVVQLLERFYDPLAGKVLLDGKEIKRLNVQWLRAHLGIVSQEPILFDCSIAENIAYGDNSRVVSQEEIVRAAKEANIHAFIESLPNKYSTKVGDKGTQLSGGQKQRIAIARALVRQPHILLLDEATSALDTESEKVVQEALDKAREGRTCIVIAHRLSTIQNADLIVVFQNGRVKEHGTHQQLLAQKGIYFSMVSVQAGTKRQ
- protocol_notes: JC-1 efflux inhibition dose response, flow cytometry, Jurkat-DNR cells
- conditions: IC50 ABCB1 (efflux inhibition of JC-1 substrate), Jurkat-DNR cells over-expressing ABCB1; averages of two to four replicates
pIC50: −log10 of the molar value.
Each entry gets No if its pIC50 stays under 5, and Yes if its pIC50 is 5 or above.

COc1cccc(-c2cc3nc(-c4ccco4)cc(N4CCN(C(C)=O)CC4)n3n2)c1    Yes
CN(C)c1cc(-c2ccco2)nc2cc(-c3ccccc3)nn12    No
O=C(c1ccoc1)N1CCN(c2cc(-c3ccco3)nc3cc(-c4ccco4)nn23)CC1    Yes
CN(C)CCN(C)c1cc(-c2ccco2)nc2cc(-c3ccccc3)nn12    No
Cc1nc2cc(-c3ccccc3)nn2c(N2CCN(C(=O)c3ccoc3)CC2)c1C    Yes

IN: Assess whether reported pIC50 for O=C(c1ccsc1)N1CCN(c2cc(-c3ccccc3)nc3cc(-c4cccc(Cl)c4)nn23)CC1 sits at 5 or higher.
OUT: Yes

====

- Tested on: Ig-MXP3 cells
- protocol_notes: Direct cytotoxicity (Toxic Dose 50) without chemotherapeutic
- Format: cell-based
- conditions: Ig-MXP3 cells, inhibitor without chemotherapeutic
For each entry below, report its TD50 ABCG2 value.
Give bare numbers, in µM.

CN(C)C(=O)CCSC(SCCC(=O)O)c1cccc(/C=C/c2ccc3ccc(Cl)cc3n2)c1 (stereo not shown) [Compound 5, reference compound]    57.40
O=C(c1ccoc1)N1CCN(c2cc(-c3ccco3)nc3cc(-c4ccccc4)nn23)CC1 [Compound 1]    18.30
COc1ccccc1-c1cc2nc(-c3ccccc3)cc(N3CCN(C(=O)c4ccoc4)CC3)n2n1 [Compound 34]    6.50
O=C(c1ccoc1)N1CCN(c2cc(-c3cccnc3)nc3cc(-c4cccc(Cl)c4)nn23)CC1 [Compound 30]    5.77

Continue with the molecule presented below.
Lab note: measured TD50 ABCG2 of COc1cccc(-c2cc(N3CCN(C(=O)c4ccoc4)CC3)n3nc(-c4ccccc4)cc3n2)c1 [Compound 65] was 67.80

====

- study_system: ABCG2 (Homo sapiens, UniProt Q9UNQ0)
- Sequence (Q9UNQ0 1-655): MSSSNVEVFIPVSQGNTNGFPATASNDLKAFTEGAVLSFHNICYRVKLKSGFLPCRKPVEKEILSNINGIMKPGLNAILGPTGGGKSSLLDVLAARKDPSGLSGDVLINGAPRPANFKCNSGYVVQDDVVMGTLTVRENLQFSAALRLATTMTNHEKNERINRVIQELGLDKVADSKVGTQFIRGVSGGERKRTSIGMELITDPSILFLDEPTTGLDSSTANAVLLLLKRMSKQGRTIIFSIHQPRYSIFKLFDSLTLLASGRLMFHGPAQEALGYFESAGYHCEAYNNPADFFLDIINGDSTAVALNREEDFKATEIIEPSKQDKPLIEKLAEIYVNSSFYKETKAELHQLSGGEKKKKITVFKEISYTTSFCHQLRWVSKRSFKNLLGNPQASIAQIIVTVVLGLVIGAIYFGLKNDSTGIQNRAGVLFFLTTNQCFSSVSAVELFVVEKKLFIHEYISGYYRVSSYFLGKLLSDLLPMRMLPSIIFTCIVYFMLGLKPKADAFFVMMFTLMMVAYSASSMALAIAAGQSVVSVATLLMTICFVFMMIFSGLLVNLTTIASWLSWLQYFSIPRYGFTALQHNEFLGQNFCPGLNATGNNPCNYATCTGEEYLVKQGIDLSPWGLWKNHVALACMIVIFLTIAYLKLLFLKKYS
- protocol_notes: JC-1 efflux inhibition dose response, flow cytometry, Ig-MXP3 cells
- Procedure: The HyperCyt® high throughput flow cytometry platform (IntelliCyt™, Albuquerque, N. Mex.) was used to sequentially sample cells from 384-well microplates (2 μL/sample) for flow cytometer presentation at a rate of 40 samples per minute.^62-63 Flow cytometric analysis was performed on a CyAn™ flow cytometer (Beckman-Coulter, Fullerton, Calif.). The resulting time-gated data files were analyzed with HyperView® software to determine compound activity in each well. […]
endpoint_name: pIC50
Answers are plain numbers, as −log10 of the molar value.

Please review the following examples before continuing.
COc1ccc(-c2cc3nc(-c4ccco4)cc(N4CCN(C(=O)c5ccoc5)CC4)n3n2)cc1    6.05
c1ccc(CN2CCN(c3cc(-c4ccco4)nc4cc(-c5ccccc5)nn34)CC2)cc1    5.51
Cc1ccc(-c2cc3nc(-c4ccco4)cc(N4CCN(C(=O)c5ccoc5)CC4)n3n2)cc1    5.28

Continue with the compound presented below.
Bench note, ABCG2 (Homo sapiens, UniProt Q9UNQ0): O=C(c1ccoc1)N1CCN(c2cc(-c3ccccc3F)nc3cc(-c4cccc(Cl)c4)nn23)CC1 , pIC50 reads 5.71
